Target: N-terminally GST-tagged human full length recombinant Mps-1 kinase (Homo sapiens, UniProt P33981)
Construct: N-terminally GST-tagged human full length recombinant Mps-1 kinase; purchased Invitrogen, Karslruhe, Germany PV4071
Sequence (P33981 1-857): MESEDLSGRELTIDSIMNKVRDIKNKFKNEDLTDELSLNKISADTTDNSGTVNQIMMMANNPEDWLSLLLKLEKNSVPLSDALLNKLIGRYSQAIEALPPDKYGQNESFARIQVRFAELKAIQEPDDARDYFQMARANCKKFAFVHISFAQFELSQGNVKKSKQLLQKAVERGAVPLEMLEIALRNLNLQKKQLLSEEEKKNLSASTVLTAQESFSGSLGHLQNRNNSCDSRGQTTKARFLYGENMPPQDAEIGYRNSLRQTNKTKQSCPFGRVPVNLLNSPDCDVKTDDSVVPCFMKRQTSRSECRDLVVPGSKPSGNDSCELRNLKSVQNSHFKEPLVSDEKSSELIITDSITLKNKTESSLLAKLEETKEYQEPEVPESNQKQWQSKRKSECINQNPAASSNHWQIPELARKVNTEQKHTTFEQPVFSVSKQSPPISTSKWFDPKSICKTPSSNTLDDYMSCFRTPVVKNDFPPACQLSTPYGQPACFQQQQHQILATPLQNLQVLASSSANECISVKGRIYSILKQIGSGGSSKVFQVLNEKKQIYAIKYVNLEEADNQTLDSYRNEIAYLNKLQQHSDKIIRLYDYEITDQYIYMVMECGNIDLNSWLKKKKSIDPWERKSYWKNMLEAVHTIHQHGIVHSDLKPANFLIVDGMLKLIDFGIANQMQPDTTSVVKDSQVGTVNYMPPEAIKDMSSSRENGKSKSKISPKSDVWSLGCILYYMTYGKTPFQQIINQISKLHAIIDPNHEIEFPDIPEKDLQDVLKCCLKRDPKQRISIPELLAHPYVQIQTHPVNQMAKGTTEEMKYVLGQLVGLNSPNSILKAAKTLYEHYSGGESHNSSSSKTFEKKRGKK
Assay: Mps-1 kinase assay (TR-FRET)
Type: biochemical
Settings: Mps1 IC50 [nM], 10 μM ATP, 1 μM peptide substrate, 60 min at 22° C.
Reported IC50 values follow for various molecules

{"columns": ["molecule", "uom", "qualifier sign", "IC50"],
 "data": [
  ["CC(C)CNc1cc(-c2cc3ccccc3o2)nn2c(-c3ccc(C(=O)NC4CC4)cc3)cnc12 [Example 127]", "nM", "=", 40],
  ["Cc1cc(-c2cnc3c(NCCO)cc(Oc4cccc(F)c4)nn23)ccc1C(=O)NC1CC1 [Example 277]", "nM", "<", 0.1],
  ["Cc1cccc(Nc2cc(NCC(C)(C)O)c3ncc(-c4ccc(C(=O)NC5CC5)c(C)c4)n3n2)c1 [Example 308]", "nM", "=", 1],
  ["CC(C)CNc1cc(-c2ccc(C(=O)NC3CC3)cc2)nn2c(-c3ccc(C(=O)NC4CC4)cc3)cnc12 [Example 116]", "nM", "=", 4],
  ["Cc1cc(-c2cnc3c(NCC(C)(C)O)cc(-c4ccccc4F)nn23)ccc1C(=O)NC1CC1 [Example 233]", "nM", "=", 1.7],
  ["C/C=C(\\C)c1cc(NCC(C)(C)O)c2ncc(-c3ccc(C(=O)NC4CC4)cc3OC)n2n1 [Example 72]", "nM", "=", 44.4],
  ["CC(C)CNc1cc(-c2cccs2)nn2c(-c3ccc(C(=O)NC4CC4)cc3)cnc12 [Example 121]", "nM", "=", 1.8],
  ["Cc1cc(-c2cnc3c(NCC(C)(C)O)cc(Nc4ccccc4F)nn23)ccc1C(=O)NC1CC1 [Example 384]", "nM", "=", 0.4],
  ["COc1cccc(Nc2cc(NCC(C)(C)O)c3ncc(-c4ccc(C(=O)NC5CC5)c(C)c4)n3n2)c1 [Example 403]", "nM", "=", 1],
  ["Cc1cc(-c2cnc3c(NCC4CCSCC4)cc(Oc4cccc(F)c4)nn23)ccc1C(=O)NC1CC1 [Example 281]", "nM", "=", 0.3],
  ["Cc1cc(-c2cnc3c(NCCN4CCOCC4)cc(Oc4cccc(F)c4)nn23)ccc1C(=O)NC1CC1 [Example 500]", "nM", "=", 0.1],
  ["CC(C)(O)CNc1cc(C2=CCCCC2)nn2c(-c3ccc(C(=S)NC4CC4)cc3)cnc12 [Example 43]", "nM", "=", 21.1],
  ["Cc1cc(-c2cnc3c(NCC(O)C(F)(F)F)cc(Sc4cccc(F)c4)nn23)ccc1C(=O)NC1CC1 (racemic) [Example 216]", "nM", "<", 1],
  ["Cc1cccc(-c2cc(NCC(C)C)c3ncc(-c4ccc(C(=O)NC5CC5)cc4)n3n2)c1C [Example 106]", "nM", "=", 8.9],
  ["CSc1cc(NCC(O)C(F)(F)F)c2ncc(-c3ccc(C(=O)NC4CC4)c(C)c3)n2n1 (racemic) [Example 206]", "nM", "=", 6.2]
]}
